Test: Compound was tested for the inhibitory effect against Gamma-amino-N-butyrate transaminase from bacteria
measureName: Ki (µM)
Answer with a number only, understood to be in µM.

Enquiry: Ki lookup needed for NC/C=C(\CF)C(=O)O , thanks.
Return: 9
